target_under_test: T1, NT-4 (neurotrophin-4) (Homo sapiens, UniProt P34130 P34130:81-210)
T1 sequence: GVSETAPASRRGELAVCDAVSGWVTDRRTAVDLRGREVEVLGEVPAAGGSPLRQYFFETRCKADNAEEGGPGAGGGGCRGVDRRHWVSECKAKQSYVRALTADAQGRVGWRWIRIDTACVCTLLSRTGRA
method: cell_activity; TF-1 TrkB cells
condition_label: tags: R&D Systems; chain copies: 2
assay_readout: IC50

Need IC50 of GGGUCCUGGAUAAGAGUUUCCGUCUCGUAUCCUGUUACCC (ssRNA, 2'-F C and U except C38; 2'-OMe G1-3,G9,G14,G16,G22,G27,C38; 2'-OH G8,G34; 2'-H A; idT 5' and 3') [SEQ ID NO: 82(16)] , thanks. < 3 nM

Need IC50 of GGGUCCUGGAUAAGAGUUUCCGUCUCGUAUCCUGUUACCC (ssRNA, 2'-F C and U except U4; 2'-OMe G1-3,U4,G9,G14,G16,G22,G27; 2'-OH G8,G34; 2'-H A; idT 5' and 3') [SEQ ID NO: 82(2)] , thanks. < 3 nM

Need IC50 of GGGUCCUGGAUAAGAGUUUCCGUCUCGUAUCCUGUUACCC (ssRNA, 2'-F C5,U7,U17,U18,U19,C20,C24,U25,U33,U36; 2'-OH G8,G34; 2'-H A; 2'-OMe all other; idT 5' and 3') [SEQ ID NO: 82(25)] , thanks. 40.4 nM
